// data source = the supplement of paper PMC10567573

B1: TRIM43 (parent)
chain: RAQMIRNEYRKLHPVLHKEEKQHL

- Variants of: B1
- Protocol Summary: protein stability index of a GFP-peptide fusion (GPS, HEK-293T) (PSI 1-6); higher = more stable;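 also: lentivirally expressed fusions sorted by FACS into six bins by GFP to DsRed ratio, PSI derived from sequencing read proportions per bin multiplied by bin number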
- Condition Description: c terminus: a fixed tail appended
Endpoint Label: protein stability index

| Mutation Notation | protein stability index |
| --- | --- |
| H23K | 3.33 |
| K18C | 2.7 |
| Y9A | 4.04 |
| H23E | 3.81 |

Inquiry: May I ask what protein stability index has been recorded for E8H ?
Reply text: 2.78

Inquiry: Record: P14M
Reply text: 2.5

Inquiry: Record: P14L
Reply text: 3.51

Inquiry: Record: Q22A
Reply text: 2.89

Inquiry: Record: E20V
Reply text: 1.97

Inquiry: Record: I5H
Reply text: 3.56

Inquiry: Record: L16E
Reply text: 4.04

Inquiry: Record: Q3R
Reply text: 2.81

Inquiry: Record: V15G
Reply text: 3.88

Inquiry: Record: K11V
Reply text: 3.4

Inquiry: Record: E20N
Reply text: 2.32

Inquiry: Record: E20F
Reply text: 1.91

Inquiry: Record: P14I
Reply text: 2.44

Inquiry: Record: K11C
Reply text: 2.79

Inquiry: Record: Q3V
Reply text: 2.63

Inquiry: Record: E19C
Reply text: 2.71
